target: CYP3A4 (Homo sapiens)
Sequence (P08684 whole entry): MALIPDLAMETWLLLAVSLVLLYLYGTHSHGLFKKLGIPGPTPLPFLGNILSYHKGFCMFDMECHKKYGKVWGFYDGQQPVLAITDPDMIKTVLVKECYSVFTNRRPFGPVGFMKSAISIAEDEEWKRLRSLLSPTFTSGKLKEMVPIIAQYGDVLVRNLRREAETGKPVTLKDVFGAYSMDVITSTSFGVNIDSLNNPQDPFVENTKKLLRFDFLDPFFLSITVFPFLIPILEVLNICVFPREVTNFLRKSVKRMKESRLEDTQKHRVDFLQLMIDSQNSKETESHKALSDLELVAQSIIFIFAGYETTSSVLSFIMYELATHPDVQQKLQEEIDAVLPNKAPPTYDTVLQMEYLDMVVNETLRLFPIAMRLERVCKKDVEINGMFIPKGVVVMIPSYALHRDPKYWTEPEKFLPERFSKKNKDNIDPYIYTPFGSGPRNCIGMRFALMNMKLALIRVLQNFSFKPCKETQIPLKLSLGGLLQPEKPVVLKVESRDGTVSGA
MEASUREMENT_TYPE: IC50

>>> print(df.to_string())
                               given_smiles  endpoint_value
0  CCOc1cc2c(cc1OC)-c1c/c(=N\c3c(C)cc(C)cc3C)n(CCNC(=O)c3c(O)nnn3C)c(=O)n1CC2         ≥ 50 µM

###

biological target: recombinant human PDE4B (Homo sapiens); construct: amino acid 305-end; GST (N); assay: In vitro inhibitory activity against PDE 4B enzyme (fluorescence polarization); details: 1 μM cAMP substrate
Sequence (Q07343 305-736 limits assumed): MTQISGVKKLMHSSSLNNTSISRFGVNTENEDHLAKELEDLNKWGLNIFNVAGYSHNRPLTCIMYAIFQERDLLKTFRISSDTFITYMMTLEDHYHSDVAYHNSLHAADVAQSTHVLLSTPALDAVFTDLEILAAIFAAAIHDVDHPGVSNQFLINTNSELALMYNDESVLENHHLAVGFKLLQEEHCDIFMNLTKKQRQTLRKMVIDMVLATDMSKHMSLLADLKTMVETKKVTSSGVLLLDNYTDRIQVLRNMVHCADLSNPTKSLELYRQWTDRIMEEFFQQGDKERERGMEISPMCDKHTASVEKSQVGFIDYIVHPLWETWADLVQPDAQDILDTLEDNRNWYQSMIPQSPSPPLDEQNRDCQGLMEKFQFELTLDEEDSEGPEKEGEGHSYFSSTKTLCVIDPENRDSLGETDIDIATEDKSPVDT
pIC50: −log10 of the molar value.
MEASUREMENT_TYPE: pIC50

                               given_smiles  endpoint_value
0  CCOc1cc2c(cc1OC)-c1c/c(=N\c3c(C)cc(C)cc3C)n(CCNC(=O)c3c(O)nnn3C)c(=O)n1CC2            9.39

###

target: UniProt:P33261
Sequence (P33261 whole entry): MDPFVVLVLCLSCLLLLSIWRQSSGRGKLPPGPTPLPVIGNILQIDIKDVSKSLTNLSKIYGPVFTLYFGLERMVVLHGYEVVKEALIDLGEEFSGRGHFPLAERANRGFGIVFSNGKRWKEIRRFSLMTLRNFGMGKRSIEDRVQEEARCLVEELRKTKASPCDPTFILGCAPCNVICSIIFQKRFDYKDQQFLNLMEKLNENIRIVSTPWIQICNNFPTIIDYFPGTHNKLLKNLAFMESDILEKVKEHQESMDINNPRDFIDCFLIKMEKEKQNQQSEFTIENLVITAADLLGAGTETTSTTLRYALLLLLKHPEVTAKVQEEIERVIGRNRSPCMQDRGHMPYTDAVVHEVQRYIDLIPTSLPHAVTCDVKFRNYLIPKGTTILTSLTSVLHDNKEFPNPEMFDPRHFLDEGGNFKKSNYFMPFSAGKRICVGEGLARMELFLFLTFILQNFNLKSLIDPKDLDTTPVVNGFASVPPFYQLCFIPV
MEASUREMENT_TYPE: IC50

In [3]: df
Out[3]:
                               given_smiles    study_system  endpoint_value
0  CCOc1cc2c(cc1OC)-c1c/c(=N\c3c(C)cc(C)cc3C)n(CCNC(=O)c3c(O)nnn3C)c(=O)n1CC2  UniProt:P33261         ≥ 50 µM

###

tested on: TNF-α in human peripheral blood mononuclear cells; assay: Inhibitory activity against TNF-α in LPS-stimulated hPBMCs (ELISA); format: cell-based; conditions: PBMC, 1 ng/mL LPS, 24 h, read-out: hPBMC IC50 (TNF-α)
MEASUREMENT_TYPE: IC50 (nM)

In [3]: df
Out[3]:
                               given_smiles  measurement_type  endpoint_value
0  CCOc1cc2c(cc1OC)-c1c/c(=N\c3c(C)cc(C)cc3C)n(CCNC(=O)c3c(O)nnn3C)c(=O)n1CC2              IC50            29.2
